Molecular target: His-tagged CNA
Assay: SPR
No end group written: not given here. *: point of attachment. Biotin = O=C1N[C@H]2[C@H](CS[C@H]2CCCCC(=O)*)N1
property.measured: Kd (nM)
State the answer as a number, implicitly in nM.

Task: Can you share its Kd? I mean this binder: Biotin-AAAMAGFPPEITVTPPTP [CABIN1-L-1]
Result: 512
